Target: T1, human ST2L (human, UniProt Q01638 19-328, limits assumed)
T1 construct: also called IL-1R4; IL-33Ra
T1 sequence (looked up): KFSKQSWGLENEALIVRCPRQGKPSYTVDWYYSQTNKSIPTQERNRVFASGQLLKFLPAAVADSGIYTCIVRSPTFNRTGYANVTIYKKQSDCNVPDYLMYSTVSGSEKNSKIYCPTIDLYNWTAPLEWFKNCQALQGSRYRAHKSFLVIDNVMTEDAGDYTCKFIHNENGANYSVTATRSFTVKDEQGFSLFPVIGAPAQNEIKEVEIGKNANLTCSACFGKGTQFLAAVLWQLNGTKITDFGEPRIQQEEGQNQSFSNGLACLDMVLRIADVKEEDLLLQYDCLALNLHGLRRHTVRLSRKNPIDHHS
Assay: affinity table; method not stated
Measured property: koff (s⁻¹)

>  <Binder>
STLM124 (antibody, from another filing, V domains shown) VH: EVQLLESGGGLVQPGGSLRLSCAASGFTFSIYDMIWVRQAPGKGLEWVSTIKGEGGGTYYADSVKGRFTISRDNSKNTLYLQMNSLRAEDTAVYYCARDPWSTEGSFFVLDYWGQGTLVTVSS VL: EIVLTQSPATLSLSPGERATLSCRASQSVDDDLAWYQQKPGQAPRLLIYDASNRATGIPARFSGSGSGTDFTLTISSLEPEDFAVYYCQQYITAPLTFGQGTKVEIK

>  <Measured property>
koff

>  <Display unit>
s⁻¹

>  <Numeric result>
0.000756

$$$$
>  <Binder>
STLM208 (antibody, V domains shown) VH: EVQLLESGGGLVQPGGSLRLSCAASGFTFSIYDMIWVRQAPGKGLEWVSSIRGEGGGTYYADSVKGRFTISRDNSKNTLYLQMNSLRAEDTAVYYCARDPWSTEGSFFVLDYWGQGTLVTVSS VL: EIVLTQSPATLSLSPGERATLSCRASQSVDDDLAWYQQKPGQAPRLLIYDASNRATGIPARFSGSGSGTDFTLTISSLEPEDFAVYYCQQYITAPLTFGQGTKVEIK

>  <Measured property>
koff

>  <Display unit>
s⁻¹

>  <Numeric result>
6.76e-05

$$$$
>  <Binder>
STLM207 (antibody, from another filing, V domains shown) VH: EVQLLESGGGLVQPGGSLRLSCAASGFTFSSYDMIWVRQAPGKGLEWVSTIRGEGGTTAYADSVKGRFTISRDNSKNTLYLQMNSLRAEDTAVYYCARDPWSTEGSFFVLDYWGQGTLVTVSS VL: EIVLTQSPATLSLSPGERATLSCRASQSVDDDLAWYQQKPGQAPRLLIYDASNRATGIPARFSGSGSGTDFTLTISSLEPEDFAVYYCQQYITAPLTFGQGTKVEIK

>  <Measured property>
koff

>  <Display unit>
s⁻¹

>  <Numeric result>
0.000395

$$$$
